# Test system: CP266
# Assay remarks: qHTS profiling for inhibitors of Plasmodium falciparum proliferation (AID 504749); note: nearly all actives have a fitted effect of over 60% in size
# Study conditions: P. falciparum in erythrocytes, SYBR Green DNA, 72 h; series mostly up to 28.7 µM
Records with an inconclusive call do not appear. Calls of active or inactive are those of the source. Calls come from the whole dose curve; as a rule, active = well fitted inhibition curve with a large enough effect; inconclusive = small, poorly fitted or top-dose-only effect; inactive = flat fitted curve, though single readings scatter.
Valid outcomes are listed here; reply with one: active, inactive

Below are worked cases with known answers.
CNC1=CN(O)C(c2ccccc2)=c2cc(Cl)ccc2=N1 :: active
O=C(O)c1ccccc1-c1c2ccc(=O)cc-2oc2cc(O)ccc12 :: inactive
Oc1cc2cc(CCN3CCN(c4nsc5ccccc45)CC3)c(Cl)cc2[nH]1 :: inactive
OC[C@@H](O)C(O[C@@H]1O[C@@H](CO)[C@H](O)[C@H](O)[C@H]1O)[C@H](O)[C@@H](O)CO (some centres undefined) :: inactive
CNC1C(O)C(OC2C(N)CC(N)C(OC3OC(CN)=CCC3N)C2O)OCC1(C)O (centres undefined) :: inactive

q: Just curious, what result did `C[C@@H](O)[C@@H]1C(=O)N2C(C(=O)O)=C([C@H]3CCCO3)S[C@H]12` get here?
a: inactive

q: Note, next up: `C=C1/C(=C\C=C2/CCC[C@]3(C)[C@@H]([C@H](C)/C=C/[C@@H](O)C4CC4)CC[C@@H]23)C[C@@H](O)C[C@@H]1O`
a: inactive

q: Note, next up: Cc1onc(-c2c(F)cccc2Cl)c1C(=O)NC1C(=O)N2C1SC(C)(C)C2C(=O)O (centres undefined)
a: inactive

q: Note, next up: CC(=O)OCC(=O)[C@@]1(O)CCC2C3C[C@H](C)C4=CC(=O)C=CC4(C)C3C(O)CC21C (some centres undefined)
a: inactive

---

# Assay remarks: Stat Signaling Pathway (AID 446);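 note: ME-180 cervical cancer cells given 40 pM IL-6 alongside compound; SIE-controlled beta-lactamase reporter measured as 460/530 nm FRET emission ratio; % is set by controls: 0 for no effect and ±100 for the full control effect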
# Study conditions: ME-180 (cervical carcinoma) SIE beta-lactamase reporter, IL-6 stimulated, 5 h; at 17.2 µM (top of the series) unless noted
Records with an inconclusive call do not appear. Active and inactive are the calls of the source. Calls come from the whole dose curve; as a rule, active = well fitted curve in either direction with a large enough effect (not every such curve was filed as active); inconclusive = small, poorly fitted or top-dose-only effect, or another doubt; inactive = flat fitted curve, though single readings scatter.
// activity, negative = inhibition lookup, one value per entry

Answered cases to consult:
CCCCNC1=C(Br)C(=O)CC(C)(C)C1 :: -6.99% (inactive)
CSc1nc(C)c2c(c1C#N)CCCC2 :: 16.1% (inactive)

q: Tell me the measured activity, negative = inhibition of COc1cc(C2C(C(C)=O)=C(O)C(=O)N2c2ccc(Br)cn2)ccc1O (configuration not stated) , please.
a: -8.75% (inactive)

q: Note, next up: `CC(C)c1nc(N2CCOCC2)c(C#N)c2c1COC(C)(C)C2`
a: 11.9% (inactive)

q: Note, next up: `COc1ccc(-n2c(=O)c(CCc3ccccc3)nc3cnc(N4CCNCC4)nc32)cc1`
a: 0.474% [at 7.69 µM] (inactive)

q: Note, next up: `S=c1nc(-c2ccccc2)[nH]n1-c1ccccc1`
a: -1.15% (inactive)

q: Note, next up: O=C(CCN1CCCC1Cc1ccccc1)c1ccc2c(c1)OCCO2 (configuration not stated)
a: 14.7% (inactive)

q: Note, next up: `CN(C)C(=O)COn1c(SCC(=O)N(C)C)nc2ccccc2c1=O`
a: 2.27% (inactive)

q: Note, next up: `CCOc1ccc(N=C2C(=O)N(CN3CCOCC3)c3ccccc32)cc1`
a: -3% (inactive)

q: Note, next up: CCCOc1ccc(C2NC(=O)NC2=O)cc1 (configuration not stated)
a: -1.78% (inactive)

q: Note, next up: C=CCn1c(C2CC(=O)N(c3ccc(C)cc3)C2)nc2ccccc21 (configuration not stated)
a: 5.25% (inactive)

q: Note, next up: `CC(C)c1nc2n[nH]c(N)c2c2c1CCC2`
a: -1.39% (inactive)
